# credit: paper PMC5540273

Listed below: %Inh values for each entry.
- Test system: BMPR2
- test-conditions: concentration: 1 μM, replicates: in singlicate; n = 1;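 note: KINOMEscan kinase panel screen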
Lab book: enter the figure in %, no units written.

>  <compound>
COc1ccc(CSc2nnc(-c3ccc4ncsc4c3)o2)cc1C(F)(F)F

>  <measure-unit>
%

>  <meas-value>
0

$$$$

Prompt: Give reported %Inh value for Fc1ccc(-c2nc[nH]c2-c2ccncc2)cc1 [SB-217360]
Response: 22

Prompt: Give reported %Inh value for O=C(Nc1n[nH]c2nc(-c3cccs3)c(Br)cc12)C1CCCC1 [SB-743341]
Response: 46

Prompt: Give reported %Inh value for CC(=O)c1cccc(NC(=O)NC2CCN(c3ccnc(Nc4ccc(F)cc4)n3)C2)c1 (stereo not drawn) [GSK1379710]
Response: 10

Prompt: Give reported %Inh value for COC(=O)c1cccc(NC(=O)NC2CCN(c3ccnc(Nc4ccc(OC)cc4)n3)C2)c1 (stereo not drawn) [GSK1379746]
Response: 26

Prompt: Give reported %Inh value for CC(=O)c1c(C)c2cnc(Nc3ccn(C)n3)nc2n(C2CCCC2)c1=O
Response: 0

Prompt: Give reported %Inh value for COc1ccc(CSc2nnc(-c3ccc4nccn4c3)o2)cc1C(F)(F)F
Response: 3

Prompt: Give reported %Inh value for COc1ccc(-c2coc3ccc(-c4nnc(C)o4)cc23)cc1
Response: 0

Prompt: Give reported %Inh value for COc1ccc(Nc2nccc(N3CCC(NC(=O)C(C)c4ccc(Cl)cc4)CC3)n2)cc1 (stereo not drawn) [GSK1379812]
Response: 7

###

- Tested on: p38-gamma
- Construct: gene MAPK12
- test-conditions: concentration: 1 μM, replicates: in singlicate; n = 1
Listed below: %Inh values for each entry.
Lab book: enter the figure in %, no units written.

For orientation, consider the following solved cases.
>  <molecule>
Cc1cnc(N)c(/C=C/c2cncc(C(=O)NCCc3ccc(Cl)cc3Cl)c2)c1.Cl

>  <assay-target>
p38-gamma

>  <measure-unit>
%

>  <meas-value>
52

$$$$
>  <molecule>
CNc1cc(-c2ccc3c(N)n[nH]c3c2)nc(N)n1

>  <assay-target>
p38-gamma

>  <measure-unit>
%

>  <meas-value>
0

$$$$
>  <molecule>
CCn1c(-c2c(N)noc2C)nc2cnccc21

>  <assay-target>
p38-gamma

>  <measure-unit>
%

>  <meas-value>
0

$$$$
>  <molecule>
Cc1c(Cn2c(C)c(C)n3c(=O)cc(N4CCOCC4)nc23)cccc1C(F)(F)F

>  <assay-target>
p38-gamma

>  <measure-unit>
%

>  <meas-value>
0

$$$$
>  <molecule>
COc1cccc(CNC(=O)NC2CCN(c3ccnc(Nc4ccc(F)cc4)n3)C2)c1 (stereo not shown)

>  <assay-target>
p38-gamma

>  <measure-unit>
%

>  <meas-value>
0

$$$$

Prompt: Give reported %Inh value for O=C1NC(=O)C(c2ccc(Cl)cc2)=C1Nc1cccc(Cl)c1
Response: 11

Prompt: Give reported %Inh value for CNCc1ccc2nc(NC(=O)c3ccc(C(C)(C)C)cc3)cn2c1
Response: 26

Prompt: Give reported %Inh value for NS(=O)(=O)c1cccc(N/C=C2\C(=O)Nc3ccc(S(=O)(=O)Cc4c(Cl)cccc4Cl)cc32)c1
Response: 7

Prompt: Give reported %Inh value for COc1cccc(NC(=O)Nc2ccc(C)c(-c3ccc(C(=O)Nc4ccncc4)cc3)c2)c1
Response: 27

Prompt: Give reported %Inh value for CSc1ccc(-c2nc3n(c2-c2ccncc2)CCC3)cc1
Response: 30

Prompt: Give reported %Inh value for CC(=O)c1cccc(NC(=O)NC2CCN(c3ccnc(Nc4ccc(F)cc4)n3)C2)c1 (stereo not shown)
Response: 3

Prompt: Give reported %Inh value for Fc1ccc(-c2nc3n(c2-c2ccncc2)CCS3)cc1
Response: 0

Prompt: Give reported %Inh value for COc1ccc(Nc2nccc(N3CCC(NC(=O)c4cc5ccccc5s4)C3)n2)cc1 (stereo not shown)
Response: 9

Prompt: Give reported %Inh value for CNc1nc(-c2ccc3c(N)n[nH]c3c2)cc(N2C[C@@H](C(=O)Nc3ccccc3)CC[C@H]2C)n1
Response: 0

Prompt: Give reported %Inh value for CC(=O)c1c(C)c2cnc(Nc3ccn(C)n3)nc2n(C2CCCC2)c1=O
Response: 0

Prompt: Give reported %Inh value for O=C(Nc1n[nH]c2nc(-c3cccs3)c(Br)cc12)C1CCCC1
Response: 13

###

Listed below: %Inh values for each entry.
- Tested on: NDR1
- Construct: gene STK38
- test-conditions: concentration: 1 μM, replicates: in singlicate; n = 1

For orientation, consider the following solved cases.
>  <molecule>
Cc1c(Cn2c3ccccc3n3c(=O)cc(N4CCOCC4)nc23)cccc1C(F)(F)F

>  <assay-target>
NDR1

>  <%Inh>
0%

$$$$
>  <molecule>
COc1cccc(C2=C(Nc3cc(Cl)c(O)c(Cl)c3)C(=O)NC2=O)c1

>  <assay-target>
NDR1

>  <%Inh>
0%

$$$$
>  <molecule>
Cc1nccc(-c2c(-c3ccc(F)cc3)ncn2CCCN2CCOCC2)n1.Cl

>  <assay-target>
NDR1

>  <%Inh>
3%

$$$$
>  <molecule>
CNCc1ccc2nc(NC(=O)c3ccc(C(C)(C)C)cc3)cn2c1

>  <assay-target>
NDR1

>  <%Inh>
34%

$$$$
>  <molecule>
Cn1cnc2c(N)ncnc21

>  <assay-target>
NDR1

>  <%Inh>
0%

$$$$

Prompt: Give reported %Inh value for COC(=O)C(NC(=O)NC1CCN(c2ccnc(Nc3ccc(F)cc3)n2)C1)c1ccccc1 (stereo not drawn)
Response: 14%

Prompt: Give reported %Inh value for CNc1nc(-c2ccc3c(N)n[nH]c3c2)cc(N2C[C@@H](C(=O)Nc3ccccc3)CC[C@H]2C)n1
Response: 22%

Prompt: Give reported %Inh value for Cc1ccc(NC(=O)c2ccc(Cl)cc2)cc1-c1ccc(C(=O)Nc2ccncc2)cc1
Response: 0%

###

- Tested on: ALK
- test-conditions: concentration: 1 μM, replicates: in singlicate; n = 1
Listed below: %Inh values for each entry.
Lab book: enter the figure in %, no units written.

For orientation, consider the following solved cases.
>  <compound>
COc1cccc(C2=C(Nc3cc(Cl)c(O)c(Cl)c3)C(=O)NC2=O)c1

>  <quantity-name>
%Inh

>  <meas-value>
29

$$$$
>  <compound>
Cn1cncc1C(=O)NC1CCN(c2ccnc(Nc3ccc(F)cc3)n2)C1 (stereo not shown)

>  <quantity-name>
%Inh

>  <meas-value>
0

$$$$
>  <compound>
CS(=O)(=O)CCNCc1nc(-c2ccc3ncnc(Nc4ccc(OCc5ccccc5)c(Cl)c4)c3c2)cs1.Cl

>  <quantity-name>
%Inh

>  <meas-value>
35

$$$$

# evaluate next
Prompt: Give reported %Inh value for Cc1ccc(NC(=O)Nc2ccc(Cl)cc2)cc1-c1ccc(C(=O)Nc2ccncc2)cc1
Response: 46

###

- Tested on: CLK1
- test-conditions: concentration: 1 μM, replicates: in singlicate; n = 1
Use 30% as the dividing line for %Inh, with the line itself on the t side and lower values as f.

Some entries whose results are on file:
>  <compound>
COc1cccc(NC(=O)Nc2ccc(C)c(-c3ccc(C(=O)Nc4ccncc4)cc3)c2)c1

>  <class-label>
f

$$$$
>  <compound>
COc1ccc(-c2coc3ccc(-c4nnc(C)o4)cc23)cc1

>  <class-label>
f

$$$$
>  <compound>
COc1ccc(Nc2nccc(N3CCC(NC(=O)c4cc5ccccc5s4)C3)n2)cc1 (centres unmarked)

>  <class-label>
f

$$$$
>  <compound>
CC(C)c1ccc(O)cc1Nc1ccnc2ccc(C(F)(F)F)cc12

>  <class-label>
f

$$$$
>  <compound>
Nc1nccc(-c2c(-c3ccc(F)cc3)ncn2C2CCN(Cc3ccccc3)CC2)n1

>  <class-label>
f

$$$$
>  <compound>
O=c1cc(N2CCOCC2)nc2n(Cc3cccc(Cl)c3Cl)c3ccccc3n12

>  <class-label>
f

$$$$
>  <compound>
CNc1nc(-c2ccc3c(N)n[nH]c3c2)cc(N2C[C@@H](C(=O)Nc3ccccc3)CC[C@H]2C)n1

>  <class-label>
t

$$$$
>  <compound>
Cn1cncc1-c1cc2c(Nc3ccc(OCc4ccccc4)cc3)ncnc2cn1

>  <class-label>
f

$$$$
>  <compound>
Nc1cccc(-c2ccc3c(N)n[nH]c3c2)n1

>  <class-label>
f

$$$$
>  <compound>
CS(=O)(=O)CCNCc1nc(-c2ccc3ncnc(Nc4ccc5c(cnn5Cc5ccccc5)c4)c3c2)cs1.Cl.Cl

>  <class-label>
f

$$$$

Consider the additional compound presented here.
Prompt: Check the entry CC[C@@H]1CO[C@H](C(=O)Nc2ccccc2)CN1c1cc(-c2ccc3c(N)n[nH]c3c2)nc(NC)n1 : does %Inh equal or exceed 30%?
Response: t

###

- Tested on: PRKR
- Construct: gene EIF2AK2
- test-conditions: concentration: 1 μM, replicates: in singlicate; n = 1
quantity-name: %Inh (%)
Lab book: enter the figure in %, no units written.

For orientation, consider the following solved cases.
>  <compound>
COc1ccc(CSc2nnc(-c3ccc4ncsc4c3)o2)cc1C(F)(F)F

>  <%Inh (%)>
3

$$$$
>  <compound>
COc1cc2ncnc(Nc3cccc(Br)c3)c2cc1OC.Cl

>  <%Inh (%)>
0

$$$$
>  <compound>
Cc1ccccc1-c1cc(-c2c[nH]nc2-c2ccccn2)ccn1

>  <%Inh (%)>
0

$$$$
>  <compound>
COc1ccc(Nc2nccc(NCCNC(=O)Nc3cc(C)ccc3C)n2)cc1

>  <%Inh (%)>
0

$$$$
>  <compound>
O=C(Nc1n[nH]c2cc(-c3ccsc3)ccc12)C1CC1

>  <%Inh (%)>
0

$$$$

Prompt: Give reported %Inh value for Nc1ncnc2occ(-c3ccc4c(c3)CCN4C(=O)Cc3cc(F)ccc3F)c12
Response: 3

Prompt: Give reported %Inh value for COc1ccc(Nc2nccc(N3CCC(NC(=O)C(C)c4ccc(Cl)cc4)CC3)n2)cc1 (centres unmarked)
Response: 0

Prompt: Give reported %Inh value for O=C(Nc1n[nH]c2nc(-c3cccs3)c(Br)cc12)C1CCCC1
Response: 0

Prompt: Give reported %Inh value for Cn1cncc1-c1cc2c(Nc3ccc(OCc4ccccc4)cc3)ncnc2cn1
Response: 0

Prompt: Give reported %Inh value for COc1ccc(Nc2nccc(N3CCC(NC(=O)c4cc5ccccc5s4)C3)n2)cc1 (centres unmarked)
Response: 0
